Tested on: M14 melanoma
Assay: NCI tumour cell line growth inhibition, 48 h
quantity_measured: TGI

Solved entries:
[[record]]
compound = "COC(=O)c1nn(-c2ccccc2)c(=O)cc1N=[N+]=[N-]"
assay_value = "> 100 µM"

[[record]]
compound = "C=CCCCC(C#N)(c1ccccc1)N1CCCC1 (stereo not given)"
assay_value = "> 100 µM"

[[record]]
compound = "O=c1n(N=S(=O)(c2ccccc2)c2ccccc2)c(=O)n2n1C1C=CC2CC1"
assay_value = "> 100 µM"

[[record]]
compound = "CC(=O)CC(=O)Nc1c(C)[c]([Hg][O]C(C)=O)c(C)[c]([Hg][O]C(C)=O)[c]1[Hg][O]C(C)=O"
assay_value = "29.8 µM"

[[record]]
compound = "CCCCCCCCCCCC1=NCCN1"
assay_value = "> 100 µM"

[[record]]
compound = "N#Cc1ccc(Oc2nc3ccccc3nc2C(=O)O)cc1"
assay_value = "> 100 µM"

[[record]]
compound = "CNN1C(=O)c2c(N)c(C#N)c(-c3ccccc3)c(-c3ccccc3)c2C1=O"
assay_value = "> 100 µM"

[[record]]
compound = "COc1ccc(C(=O)n2nc(/C=C/c3ccc(O)c(OC)c3)cc2/C=C/c2ccc(O)c(OC)c2)cc1"
assay_value = "1.32 µM"

[[record]]
compound = "COc1ccc2c(-c3ccc(OCCN(C)C)cc3)c(Oc3ccccc3)c(=O)oc2c1"
assay_value = "3.08 µM"


Attention now shifts to the item below.
Looking up N#CC(/C(=N/N=C(N)N)C(=O)Nc1ccccc1[N+](=O)[O-])c1nc(-c2ccc([N+](=O)[O-])cc2)cs1 (stereo not given) , I found its TGI recorded as > 100 µM

====

Test system: SK-OV-3 ovarian
Experiment: NCI tumour cell line growth inhibition, 48 h
Could you please report measured TGI for the items listed next?

In the examples that follow, each entry is paired with its recorded TGI.
[[record]]
compound = "O=C(Nc1nc2ncn(CCNCCn3cnc4nc(NC(=O)c5ccccc5)[nH]c(=O)c43)c2c(=O)[nH]1)c1ccccc1"
quantity_measured = "TGI"
assay_value = "> 100 µM"

[[record]]
compound = "COc1ccc2nc3c([N+](=O)[O-])ccc4c3c(c2c1)N(CCCN(C)C)C(=S)N4CCCN(C)C"
quantity_measured = "TGI"
assay_value = "34.4 µM"

[[record]]
compound = "CN(C)C=Nc1ccc2nonc2c1"
quantity_measured = "TGI"
assay_value = "> 100 µM"


Hi! Can you tell me TGI for each of these compounds?
1. CCc1nnc(CC)n1-n1c(Cc2ccccc2)n[nH]c1=O
2. Cc1ccc(S(=O)(=O)NC2=NCCN2C(=S)SN2CCn3c2nsc3=S)cc1
3. CC(C)(C)c1cc(Cc2ccc([N+](C)(C)C)cc2)c(O)c(C(C)(C)C)c1
4. CCOC(=O)C1=C(N)CCC1C (stereo unspecified)
5. COc1ccc2cc(C(=O)Nc3ccc(O)c(C(=O)O)c3)ccc2c1OC

1. > 100 µM
2. 13.6 µM
3. 95.1 µM
4. > 100 µM
5. > 100 µM

Count: 8. Required value per item: TGI.
1. O=C(O[C@H]1CN[C@H](C#Cc2cc3ncnc(Nc4ccc5c(cnn5Cc5ccccc5)c4)c3s2)C1)N1CCOCC1
2. CC(=O)NC(Cc1cnc[nH]1)C(=O)N1CCCC1C(N)=O (stereo unspecified)
3. COC(=O)C(CCC1C=CN(S(=O)(=O)c2ccc(C)cc2)C1)N=Cc1ccccc1 (stereo unspecified)
4. Cc1ccc(S(=O)(=O)NC2C(=O)c3ccccc3C(=O)C2n2ccnc2)cc1 (stereo unspecified)
5. O=C1C(=C/C=C2/SC(c3ccccc3)(c3ccccc3)c3ccccc32)C(=O)c2ccccc21
6. CC#CC(OCC)(OCC)OCC
7. Clc1ccc(N2CCN(CCCN3CCN(c4cccc(Cl)c4)CC3)CC2)cc1
8. CC(C)CCC[C@@H](C)[C@H]1CCC2C3=CCn4c(=O)ccc(=O)n4C3CC[C@@]21C (stereo partly specified)

["> 12.7 µM", "> 100 µM", "> 100 µM", "> 100 µM", "> 100 µM", "> 100 µM", "23.2 µM", "3.17 µM"]

Hi, could you look up TGI for each item in my list?
1. COc1ccc(N2C(=O)C3c4[nH]c5ccc(C)cc5c4C4CCC(c5ccccc5)CC4C3C2=O)cc1 (stereo unspecified)
2. COc1ccc(-c2nc3ccccc3c(=O)[nH]2)c(OC)c1
3. C[C@H](O)CNc1cc(-c2[nH]c3cccnc3c2-c2ccc(F)cc2)ccn1
4. C[C@]12C=CC(=O)C=C1[C@@H](F)C[C@H]1[C@@H]3CC[C@](O)(C(=O)CO)[C@@]3(C)C[C@H](O)[C@@]12F
5. C=C(CN(C)C)C1(c2ccccc2)CC2(CCCC2)C(=O)O1 (stereo unspecified)

1: > 100 µM; 2: > 100 µM; 3: > 25 µM; 4: > 100 µM; 5: > 100 µM

====

Test system: HOP-92 NSCLC
Assay: NCI tumour cell line growth inhibition, 48 h
quantity_measured: GI50

Before answering, review these 3 worked examples.
[[record]]
molecule = "[Co+2].[O-]c1ccccc1C=NCc1ccccc1.[O-]c1ccccc1C=NCc1ccccc1"
assay_value = "11.1 µM"

[[record]]
molecule = "O=C1/C(=C/c2ccc(O)c(O)c2)COc2ccc(-c3ccccc3)cc21"
assay_value = "1.74 µM"

[[record]]
molecule = "CCOC(=O)C1=C(N)CCC1C (stereo not given)"
assay_value = "41.2 µM"


Batch request: GI50 per item, same order as input.
1. COc1cc(-c2cc(/C=C/C(=O)c3ccc(N)cc3)[nH]n2)cc(OC)c1OC
2. O=C(Nc1ccc(Cl)cc1)Nc1ccc(Oc2nncc3ccccc23)cc1
3. CN1C(=O)N(C)C2C1NN=c1s/c(=C\c3ccccc3F)c(=O)n12 (stereo not given)

["3.68 µM", "1.64 µM", "8.51 µM"]

====

System: HOP-92 NSCLC
Test: NCI tumour cell line growth inhibition, 48 h
quantity_measured: TGI

Completed entries (count: 2):
[[record]]
compound = "CC(NC(=O)C(Cc1ccc(OC(=O)c2ccccc2)cc1)NC(=O)OC(C)(C)C)C(=O)NCC(=O)NC(Cc1ccccc1)NC(=O)OCc1ccccc1 (stereo not given)"
assayed_target = "HOP-92 NSCLC"
quantity_measured = "TGI"
assay_value = "> 100 µM"

[[record]]
compound = "Cc1nc2c([nH]c1C)c(O)cc1c3c(nc12)C(=O)CCC3"
assayed_target = "HOP-92 NSCLC"
quantity_measured = "TGI"
assay_value = "> 100 µM"


Look at each compound and report its TGI.
1. NC(=O)c1c2c(n3ccccc13)C(=O)c1ccccc1C2=O
2. O=C(/C=C/c1c(O)ccc2ccccc12)c1ccccc1Cl
3. O=C1Cc2c([nH]c3ccc([N+](=O)[O-])cc23)-c2ccccc2N1

["> 100 µM", "75 µM", "> 100 µM"]

====

Test system: ACHN renal
Experiment: NCI tumour cell line growth inhibition, 48 h
Consider the following molecules; for each one, report its TGI.

Take a look at these entries with their results.
[[record]]
molecule = "CN(C)c1ccc(/C=c2/c3ccccc3n3c2cc(-c2ccc(Cl)cc2)[n+]3C)cc1"
assay_value = "1460 nM"

[[record]]
molecule = "CCCCCc1cc2cc3c(c(O)c2c(=O)[nH]1)C1(CC3)C(O)=c2c(=O)c3c(=O)cc(OC)c(=O)c=3c(=O)c2=C1O (stereo not drawn)"
assay_value = "2180 nM"

[[record]]
molecule = "Nc1nc(=S)c2c(ncn2CC(O)CO)[nH]1 (stereo not drawn)"
assay_value = "> 100000 nM"

[[record]]
molecule = "Cc1cn(C2CC(n3cncn3)C(C(C)O)O2)c(=O)[nH]c1=O (stereo not drawn)"
assay_value = "> 100000 nM"

[[record]]
molecule = "CC(C)CCC[C@@H](C)[C@H]1CCC2C3=CCn4c(=O)ccc(=O)n4C3CC[C@@]21C (stereo partly drawn)"
assay_value = "2450 nM"


List the reported TGI of each molecule below.
1. NC1=NS(=O)(=O)Nc2nc(-c3ccccc3)c(-c3ccccc3)nc21
2. C[N+](C)(C)CC(=O)N/N=C(/Cc1nc2ccc(Cl)cc2[nH]c1=O)C1=NS(=O)(=O)c2cc(S(N)(=O)=O)c(Cl)cc2N1

1: > 100000 nM; 2: > 100000 nM

According to the records, this molecule C=CCCCC(C#N)(c1ccccc1)N1CCCC1 (stereo not drawn) displays TGI of > 100000 nM

====

Test system: UO-31 renal
Assay: NCI tumour cell line growth inhibition, 48 h
quantity_measured: TGI

[[record]]
compound = "C/C=C(\\C)C(=O)O[C@H]1C=CC(=O)O[C@H]1CC[C@H](O)[C@H](C)O"
quantity_measured = "TGI"
assay_value = "23.5 µM"

[[record]]
compound = "Cc1ncc(CO)c(C=NCCCCCCN=Cc2c(CO)cnc(C)c2[O-])c1[O-].[Cu+2]"
quantity_measured = "TGI"
assay_value = "> 100 µM"

[[record]]
compound = "c1ccc2c(c1)c(N1CCCCC1)cc1nc3c(cc(N4CCCCC4)c4ccccc43)nc12"
quantity_measured = "TGI"
assay_value = "> 100 µM"

[[record]]
compound = "COc1ccc(N2C(=O)CC(=O)N(C(=O)CCCCCCCCC(=O)N3C(=O)CC(=O)N(c4ccc(OC)cc4)C3=S)C2=S)cc1"
quantity_measured = "TGI"
assay_value = "> 100 µM"


Provide TGI for all items below, preserving their order.
1. C[C@]12C=CC(=O)C=C1[C@@H](F)C[C@H]1[C@@H]3CC[C@](O)(C(=O)CO)[C@@]3(C)C[C@H](O)[C@@]12F
2. CNc1cc(OCc2ccccc2)c(OC)cc1C(=O)N1CCC[C@H]1CO
3. CC(=O)N1N=C(c2cc(C)ccc2O)CC1c1cccc(Cl)c1 (configuration not stated)

1. > 100 µM
2. > 100 µM
3. 50.3 µM
